experiment: Plasma protein binding; type: in vitro ADME; details: human
VALUE_KIND: fraction unbound at 5 µmol/L
A bare number is all that is needed in reply.

Problem: State its fraction unbound at 5 µmol/L for this compound: CN1CCN(S(=O)(=O)c2cc([N+](=O)[O-])ccc2N(CCOS(C)(=O)=O)CCOS(C)(=O)=O)CC1 [ACHM-025]
Result: 0.646

====

test system: T-ALL PDXs; assay: Ex vivo cytotoxicity assay; assay type: cell-based, human; settings: Homo sapiens, 48 h, read-out: Median IC50, median of 6 T-ALL PDXs; 48 h
VALUE_KIND: IC50 (nM)
Report the figure in nM without appending any unit label.

Problem: Please give the documented IC50 of CN1CCN(S(=O)(=O)c2cc([N+](=O)[O-])ccc2N(CCOS(C)(=O)=O)CCOS(C)(=O)=O)CC1
Result: 29
